Biological target: T1, Notch2NRR (Notch2 NRR domain) (human, UniProt Q04721 1423-1677, biotin on the N-terminal Avi tag (enzymatic))
T1 construct: also called NRR protein; not shown: Avi tag, N-terminal, kept
T1 sequence (looked up): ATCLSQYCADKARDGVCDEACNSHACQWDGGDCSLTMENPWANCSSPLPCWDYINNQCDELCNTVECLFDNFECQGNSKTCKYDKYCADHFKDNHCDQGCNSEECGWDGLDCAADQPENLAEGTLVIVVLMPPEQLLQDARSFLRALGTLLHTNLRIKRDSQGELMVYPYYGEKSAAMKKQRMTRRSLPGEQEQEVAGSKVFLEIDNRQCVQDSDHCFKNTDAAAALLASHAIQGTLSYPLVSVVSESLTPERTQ
Assay: SPR
Settings: both partners purified
pKd: −log10 of the molar value.
Decide using pKd: a value greater than or equal to 4 is Satisfied, a smaller one is Not satisfied.

GCMPRYGGWHCKQDSDCLAGCVCGPNGFCG (designed binder) [N2N-EET-63] ... Not satisfied
GCQQRRWGGWQQCKQDSDCLAGCVCGPNGFCG (designed binder) [N2N-EET-33] ... Satisfied
GCRPRFKGWTCKQDSDCLAGCVCGPNGFCG (designed binder) [N2N-EET-n3] ... Not satisfied
GCRPRWGGWHCKQDSDCLAGCVCGPNGFCG (designed binder) [N2N-EET-57] ... Not satisfied
GCGQKRMGGWQWCKQDSDCLAGCVCGPNGFCG (designed binder) [N2N-EET-n13] ... Satisfied

Exercise: Check the entry GCGQQRWGGWPLCKQDSDCLAGCVCGPNGFCG (designed binder) [N2N-EET-45] : does pKd equal or exceed 4?
Key: Satisfied

Source: paper PMC10977697
